Can you tell me MTD for the items I'm about to list?
# Assay Name: Acute toxicity test, single oral gavage
# Assay type: in vivo
# Condition Info: both sexes, rat, in vivo, po, SD rats, read-out: maximum tolerated dose (MTD)

q: Query MTD for Fc1ccccc1-c1cccc(COc2ccc3c(n2)CCNC3)c1Cl
a: ≥ 2000 mg/kg

q: Query MTD for OCCN1CCc2nc(OCc3cccc(-c4ccccc4Cl)c3F)ccc2C1
a: ≥ 2000 mg/kg

q: Query MTD for O=C(O)CN1CCc2nc(OCc3cccc(-c4ccccc4F)c3Cl)ccc2C1
a: ≥ 2000 mg/kg

----------
# Measurement Target: hPD-1/hPD-L1 (Homo sapiens, UniProt Q9NZQ7)
# Sequence (Q9NZQ7 19-238 limits assumed): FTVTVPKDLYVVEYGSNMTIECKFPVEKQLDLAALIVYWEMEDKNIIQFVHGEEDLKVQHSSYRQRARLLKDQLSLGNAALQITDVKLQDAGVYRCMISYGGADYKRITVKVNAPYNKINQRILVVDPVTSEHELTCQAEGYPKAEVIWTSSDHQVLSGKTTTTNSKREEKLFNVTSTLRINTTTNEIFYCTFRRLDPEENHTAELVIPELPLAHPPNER
# Assay Name: PD-1/PD-L1 binding assay kit (CISBIO), HTRF assay of PD-1/PD-L1 protein-protein interaction
# Description: Experimental objective: the activity of the compounds of formula (I) to inhibit the PD-1/PD-L1 interaction was tested by using a PD-1/PD-L1 binding assay kit (CISBIO). Experimental principle: HTRF (Homogeneous Time-Resolved Fluorescence) is a technique used to detect substances to be tested in pure liquid phase systems. […] Experimental procedure: PD-1/PD-L1 binding assay kits were used. […] IC50 of the compounds was calculated by using Graphpad.
Measured Attribute: IC50

q: Query IC50 for Cc1c(-c2ccc3c(c2)CN(CCC(=O)O)C3=O)cccc1-c1ccccc1F [I-A-5]
a: > 1000 nM

q: Query IC50 for Cc1c(COc2ccc3c(n2)CCN(CCO)C3)cccc1-c1ccccc1 [I-D-17]
a: 70 to 1000 nM

q: Query IC50 for Cc1c(COc2ccc3c(n2)CCN(CCO)C3)cccc1-c1ccccc1Cl [I-D-16]
a: 70 to 1000 nM

q: Query IC50 for OCCN1CCc2nc(OCc3cccc(-c4ccccc4Cl)c3F)ccc2C1 [I-D-24]
a: 70 to 1000 nM

q: Query IC50 for Cc1ccccc1-c1cccc(COc2ccc3c(n2)CCN(CCO)C3)c1F [I-D-23]
a: 70 to 1000 nM

q: Query IC50 for Cc1c(-c2ccc3c(c2)CN(CC(=O)O)C3=O)cccc1-c1ccccc1F [I-A-4]
a: > 1000 nM

q: Query IC50 for OCCN1CCc2nc(OCc3cccc(-c4ccccc4Cl)c3Cl)ccc2C1 [I-D-20]
a: 70 to 1000 nM

q: Query IC50 for Cc1c(-c2ccc3c(c2)CN(CCO)C3=O)cccc1-c1ccccc1F [I-A-7]
a: 70 to 1000 nM

q: Query IC50 for Cc1c(-c2ccc3c(c2)CN(CC(N)=O)C3=O)cccc1-c1ccccc1F [I-A-8]
a: 70 to 1000 nM

q: Query IC50 for Cc1ccccc1-c1cccc(COc2ccc3c(n2)CCN(CCO)C3)c1C [I-D-15]
a: 70 to 1000 nM

q: Query IC50 for OCCN1CCc2nc(OCc3cccc(-c4ccccc4)c3F)ccc2C1 [I-D-25]
a: 70 to 1000 nM

q: Query IC50 for Cc1c(-c2ccc3c(c2)CN(C(C)C(=O)O)C3=O)cccc1-c1ccccc1F (stereo not shown) [I-A-6]
a: > 1000 nM

q: Query IC50 for Cc1c(-c2ccc3c(n2)CCN(CCO)C3)cccc1-c1ccccc1F [I-B-3]
a: 70 to 1000 nM
